Ref: paper PMC12002112

MEASURED TARGET: PilF9–65 F63Y H33Q S39R A41G R62Q (Thermus thermophilus, UniProt Q5SLC9, A41G/F63Y/H33Q/R62Q/S39R)
MEASUREMENT NOTES: ITC c‐di‐GMP binding, PilF9–65 F63Y H33Q S39R A41G R62Q
ASSAY CONTEXT: 20 °C, pH 7.5, PilF9–65 F63Y H33Q S39R A41G R62Q
METRIC NAME: Kd (µM)
Number only, in µM; omit the unit.

Q: // Input: Nc1nc2c(ncn2C2OC3COP(=O)(O)OC4C(COP(=O)(O)OC3C2O)OC(n2cnc3c(=O)[nH]c(N)nc32)C4O)c(=O)[nH]1 (stereo not shown) [c‐di‐GMP] . Output its Kd only.
Result: 1.8
